Source listed as patent US5705487A.

Catalogue of Kass × 10^6 (L/mole) t-PA readings, one per entry.
molecular target: t-PA (Homo sapiens); construct: purchased American Diagnostica, Greenwich, Conn; assay: Kass, t-PA chromogenic substrate assay; assay type: biochemical; conditions: substrate H-D-Ile-Pro-Arg-p-nitroanilide
Sequence (P00750 36-562): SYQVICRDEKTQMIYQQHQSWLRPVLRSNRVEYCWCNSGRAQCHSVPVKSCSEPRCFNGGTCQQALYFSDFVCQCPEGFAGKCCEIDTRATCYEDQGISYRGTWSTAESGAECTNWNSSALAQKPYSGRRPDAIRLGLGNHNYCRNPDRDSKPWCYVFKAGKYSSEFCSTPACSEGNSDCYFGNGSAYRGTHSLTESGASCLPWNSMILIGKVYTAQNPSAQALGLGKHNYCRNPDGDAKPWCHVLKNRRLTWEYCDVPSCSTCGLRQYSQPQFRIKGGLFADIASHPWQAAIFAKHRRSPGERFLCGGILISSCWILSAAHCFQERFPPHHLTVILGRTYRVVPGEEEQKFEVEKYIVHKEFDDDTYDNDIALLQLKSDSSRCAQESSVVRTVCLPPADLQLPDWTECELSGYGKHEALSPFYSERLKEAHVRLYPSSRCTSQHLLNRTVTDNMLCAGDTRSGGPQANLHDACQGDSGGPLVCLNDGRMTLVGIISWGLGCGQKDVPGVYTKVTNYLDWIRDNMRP

Worked cases, answers included:
Summary: Cl.N=C(N)c1cccc(CNC(=O)[C@@H]2CCCN2C(=O)[C@H](N)Cc2ccccc2)c1 [Example 16, D-Phe-Pro-m-NHCH2 C6 H4 C(NH)NH2.0.75HCl] , t-PA (Homo sapiens), Kass × 10^6 (L/mole) t-PA = 0.0012 × 10^6 L/mole

Summary: N=C(N)c1cccc(CCCNC(=O)[C@@H]2CCCN2C(=O)[C@@H]2NCC[C@@H]3CCCC[C@@H]32)c1 , t-PA (Homo sapiens), Kass × 10^6 (L/mole) t-PA = < 0.001 × 10^6 L/mole

Summary: Cl.O=C(O)CNC(CC1CCCCC1)C(=O)N1CCCC1C(=O)NCCC1CCNCC1 (stereo not shown) , t-PA (Homo sapiens), Kass × 10^6 (L/mole) t-PA = < 0.001 × 10^6 L/mole

Now for another entry.
Summary: Cl.N=C(N)N1CCC(CNC(=O)[C@@H]2CCCN2C(=O)[C@@H](CC2CCCCC2)NCC(=O)O)CC1 , t-PA (Homo sapiens), Kass × 10^6 (L/mole) t-PA = < 0.001 × 10^6 L/mole

---

target: factor Xa (Homo sapiens, UniProt P00742); construct: Human factors X, Xa, IXa, XIa, and XIIa are purchased; purchased Enzyme Research Laboratories, South Bend, Ind; assay: Kass, factor Xa chromogenic substrate assay; assay type: biochemical; details: substrate N-Benzoyl-Ile-Glu-Gly-Arg-p-nitroanilide
Sequence (P00742 235-488 limits assumed): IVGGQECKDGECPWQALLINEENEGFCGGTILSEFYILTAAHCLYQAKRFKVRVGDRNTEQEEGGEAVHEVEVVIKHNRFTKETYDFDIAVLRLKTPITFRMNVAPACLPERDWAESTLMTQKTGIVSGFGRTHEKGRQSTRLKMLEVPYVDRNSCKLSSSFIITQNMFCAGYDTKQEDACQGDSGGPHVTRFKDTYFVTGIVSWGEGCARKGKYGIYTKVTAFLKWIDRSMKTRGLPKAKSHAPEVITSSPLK
Sequence (P00742 41-179 partner limits assumed): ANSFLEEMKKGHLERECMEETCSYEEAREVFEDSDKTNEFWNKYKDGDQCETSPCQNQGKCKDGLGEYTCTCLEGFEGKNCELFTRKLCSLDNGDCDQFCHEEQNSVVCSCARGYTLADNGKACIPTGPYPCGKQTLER
Catalogue of Kass × 10^6 (L/mole) Xa readings, one per entry.

Worked cases, answers included:
For record CCS(=O)(=O)N[C@H](Cc1ccccc1)C(=O)N1CCC[C@H]1C(=O)NCCCc1cccc(C(=N)N)c1 the listed Kass × 10^6 (L/mole) Xa is 0.14 × 10^6 L/mole

For record Cl.N=C(N)c1ccc(CNC(=O)CN(CCc2ccccc2)C(=O)CNCC(=O)O)cc1 the listed Kass × 10^6 (L/mole) Xa is 0.071 × 10^6 L/mole

For record Cl.O=C(O)CN[C@H](CC1CCCCC1)C(=O)N1CCC[C@H]1C(=O)NCCCC1=CCNCC1 the listed Kass × 10^6 (L/mole) Xa is < 0.001 × 10^6 L/mole

Now for another entry.
For record N=C(N)c1ccc(CNC(=O)[C@@H]2CCCN2C(=O)[C@@H](CCC2CCCCC2)NCC(=O)O)cc1 the listed Kass × 10^6 (L/mole) Xa is 3.9 × 10^6 L/mole

---

System: Human Plasma
Test: Human plasma anticoagulation, activated partial thromboplastin time (APTT)
Assay type: biochemical
Conditions: concentration required to double the clotting time
Experimental: Dog plasma and rat plasma is obtained from conscious mixed-breed hounds (either sex, Hazelton-LRE, Kalamazoo, Mich., U.S.A.) or from anesthetized male Sprague-Dawley rats (Harlan Sprague-Dawley, Inc., Indianapolis, Ind., U.S.A.) by venipuncture into 3.8 percent citrate. […] Coagulation assay procedures are as previously described. […] The prothrombin time (PT) is measured by adding 0.05 mL saline and 0.05 mL Thromboplastin-C reagent to 0.05 mL test plasma. […]
Catalogue of Human Plasma Anticoagulation 2x Clotting time APTT readings, one per entry.
Report the figure in ng/mL without appending any unit label.

Worked cases, answers included:
For record CCS(=O)(=O)N[C@H](CC1CCCCC1)C(=O)N1CCC[C@H]1C(=O)NCc1ccc(C(=N)N)cc1.Cl the listed Human Plasma Anticoagulation 2x Clotting time APTT is 40

For record CS(=O)(=O)CC(=O)N[C@H](CC1CCCCC1)C(=O)N1CCC[C@H]1C(=O)NCc1ccc(C(=N)N)cc1 the listed Human Plasma Anticoagulation 2x Clotting time APTT is 210

For record N=C(N)c1ccc(CNC(=O)[C@@H]2C[C@@H]3CCCC[C@@H]3N2C(=O)[C@@H](Cc2ccccc2)NCC(=O)O)cc1 (relative stereo) the listed Human Plasma Anticoagulation 2x Clotting time APTT is 140

---
For record Cl.N=C(N)c1cc(F)c(CNC(=O)[C@@H]2CCCN2C(=O)[C@@H](CC2CCCCC2)NCC(=O)O)c(F)c1 the listed Human Plasma Anticoagulation 2x Clotting time APTT is 160

---

tested on: Human Plasma; test: Human plasma anticoagulation, activated partial thromboplastin time (APTT); format: biochemical; details: concentration required to double the clotting time
readout-name: Human Plasma Anticoagulation 2x Clotting time APTT (ng/mL)
Report the figure in ng/mL without appending any unit label.

For record Cl.Nc1cc(CNC(=O)[C@@H]2CCCN2C(=O)[C@@H](CC2CCCCC2)NCC(=O)O)ccn1 the listed Human Plasma Anticoagulation 2x Clotting time APTT is 340

For record Cl.N=C(N)N1CC=C(CNC(=O)[C@@H]2CCCN2C(=O)[C@@H](CC2CCCCC2)NCC(=O)O)CC1 the listed Human Plasma Anticoagulation 2x Clotting time APTT is 160

Now for another entry.
For record Cl.Nc1ccc(CNC(=O)[C@@H]2CCCN2C(=O)[C@@H](CC2CCCCC2)NCC(=O)O)c(F)c1 the listed Human Plasma Anticoagulation 2x Clotting time APTT is 900

---

biological target: t-PA (Homo sapiens); construct: purchased American Diagnostica, Greenwich, Conn; assay: Kass, t-PA chromogenic substrate assay; type: biochemical; conditions: substrate H-D-Ile-Pro-Arg-p-nitroanilide
Where a name gives a salt, the structure may show the parent alone.
readout-name: Kass × 10^6 (L/mole) t-PA

Worked cases, answers included:
For record Cl.Cl.N=C(N)c1ccc(CNC(=O)[C@@H]2CCCN2C(=O)[C@H](N)CC2CCCCC2)cc1 [Example 51, D-Cha-Pro-p-NHCH2 C6 H4 C(NH)NH2.2HCl] the listed Kass × 10^6 (L/mole) t-PA is 0.01 × 10^6 L/mole

For record N=C(N)c1cccc(CNC(=O)[C@@H]2CCCN2C(=O)[C@@H]2NCC[C@@H]3CCCC[C@@H]32)c1 [Example 25, D-1-Piq-Pro-m-NHCH2 -C6 H4 C(=NH)NH2.HCl] the listed Kass × 10^6 (L/mole) t-PA is 0.01 × 10^6 L/mole

For record Cl.O=C(O)CN[C@H](CC1CCCCC1)C(=O)N1CCC[C@H]1C(=O)NCCC1=CCNCC1 [Example 59] the listed Kass × 10^6 (L/mole) t-PA is < 0.001 × 10^6 L/mole

---
For record N=C(N)c1cccc(CCNC(=O)[C@@H]2CCCN2C(=O)[C@@H]2NCC[C@@H]3CCCC[C@@H]32)c1 [Example 29] the listed Kass × 10^6 (L/mole) t-PA is < 0.001 × 10^6 L/mole

For record CCS(=O)(=O)N[C@H](Cc1ccccc1)C(=O)N1CCC[C@H]1C(=O)NCCc1ccc(C(=N)N)cc1 [Example 26] the listed Kass × 10^6 (L/mole) t-PA is 0.01 × 10^6 L/mole

For record CCS(=O)(=O)N[C@H](Cc1ccccc1)C(=O)N1CCC[C@H]1C(=O)NCc1cccc(C(=N)N)c1 [Example 24] the listed Kass × 10^6 (L/mole) t-PA is < 0.001 × 10^6 L/mole

---

target: factor Xa (Homo sapiens, UniProt P00742); construct: Human factors X, Xa, IXa, XIa, and XIIa are purchased; purchased Enzyme Research Laboratories, South Bend, Ind; assay: Kass, factor Xa chromogenic substrate assay; type: biochemical; settings: substrate N-Benzoyl-Ile-Glu-Gly-Arg-p-nitroanilide
Structures can show the parent of a compound that is named as a salt.
readout-name: Kass × 10^6 (L/mole) Xa

Worked cases, answers included:
For record Cl.Cl.N=C(N)c1ccc(CNC(=O)[C@@H]2CCCN2C(=O)[C@H](N)CC2CCCCC2)cc1 [Example 51, D-Cha-Pro-p-NHCH2 C6 H4 C(NH)NH2.2HCl] the listed Kass × 10^6 (L/mole) Xa is 0.84 × 10^6 L/mole

For record N=C(N)c1cccc(CNC(=O)[C@@H]2CCCN2C(=O)[C@@H]2NCC[C@@H]3CCCC[C@@H]32)c1 [Example 25, D-1-Piq-Pro-m-NHCH2 -C6 H4 C(=NH)NH2.HCl] the listed Kass × 10^6 (L/mole) Xa is < 0.001 × 10^6 L/mole

For record Cl.O=C(O)CNC(CC1CCCCC1)C(=O)N1CCCC1C(=O)NCCC1CCNCC1 (stereo not shown) the listed Kass × 10^6 (L/mole) Xa is < 0.001 × 10^6 L/mole

Now for another entry.
For record N=C(N)Nc1cccc(CNC(=O)[C@@H]2CCCN2C(=O)[C@@H]2NCC[C@@H]3CCCC[C@@H]32)c1 the listed Kass × 10^6 (L/mole) Xa is < 0.001 × 10^6 L/mole

---

system: Human Plasma; experiment: Human plasma anticoagulation, activated partial thromboplastin time (APTT); assay type: biochemical; settings: concentration required to double the clotting time
readout-name: Human Plasma Anticoagulation 2x Clotting time APTT

Worked cases, answers included:
For record Cl.N=C(N)c1ccc(CCCNC(=O)C2CCCN2C(=O)C2NCCC3CCCCC32)cc1 (stereo not shown) [Example 32] the listed Human Plasma Anticoagulation 2x Clotting time APTT is 28,500 ng/mL

For record Cl.O=C(O)CN[C@H](CC1CCCCC1)C(=O)N1CCC[C@H]1C(=O)NCCC1=CCNCC1 [Example 59] the listed Human Plasma Anticoagulation 2x Clotting time APTT is 5,500 ng/mL

For record Cl.N=C(N)c1ccc(CNC(=O)[C@@H]2CCCN2C(=O)[C@@H](CC2CCCCC2)NCC(=O)O)c(F)c1 [Example 71] the listed Human Plasma Anticoagulation 2x Clotting time APTT is 89 ng/mL

Now for another entry.
For record Cl.N=C(N)c1cccc(CNC(=O)[C@@H]2CCCN2C(=O)[C@H](N)Cc2ccccc2)c1 [Example 16, D-Phe-Pro-m-NHCH2 C6 H4 C(NH)NH2.0.75HCl] the listed Human Plasma Anticoagulation 2x Clotting time APTT is 8,600 ng/mL
